Molecular target: Prostaglandin G/H synthase 2 (Homo sapiens) (UniProt P35354)
Sequence (P35354 whole entry): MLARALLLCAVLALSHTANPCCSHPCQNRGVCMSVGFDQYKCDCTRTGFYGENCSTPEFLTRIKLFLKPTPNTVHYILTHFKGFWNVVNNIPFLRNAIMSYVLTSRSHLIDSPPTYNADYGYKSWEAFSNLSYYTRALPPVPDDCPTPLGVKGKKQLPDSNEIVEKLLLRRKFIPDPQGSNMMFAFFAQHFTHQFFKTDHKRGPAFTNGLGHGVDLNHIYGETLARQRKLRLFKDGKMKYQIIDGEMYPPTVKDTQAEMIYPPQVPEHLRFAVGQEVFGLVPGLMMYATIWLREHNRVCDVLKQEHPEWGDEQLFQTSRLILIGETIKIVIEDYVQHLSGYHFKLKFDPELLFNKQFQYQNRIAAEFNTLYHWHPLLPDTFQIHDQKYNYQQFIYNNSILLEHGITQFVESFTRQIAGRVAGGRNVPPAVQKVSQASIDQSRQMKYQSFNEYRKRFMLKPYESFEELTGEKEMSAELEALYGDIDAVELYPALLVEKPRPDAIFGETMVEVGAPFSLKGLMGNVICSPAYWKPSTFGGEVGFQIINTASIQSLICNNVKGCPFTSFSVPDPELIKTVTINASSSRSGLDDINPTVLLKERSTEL
Experiment: Inhibition of human recombinant COX2 assessed as reduction in PGE2 formation at 20 uM pre-incubated for 5 mins before arachidonic acid addition and measured after 20 mins by ELISA
Active and inactive are the calls of the source. No cut-off for these calls is given here.
MEASURE NAME: inhibition

# COMPOUND, VALUE MEASURED
measured = [
    ("CC(C)=CCC/C(C)=C/Cc1c(O)cc2c(c1O)C(=O)C[C@@H](c1ccc(O)c(O)c1)O2", "Active"),
    ("CC(C)=CCC/C(C)=C/Cc1c(O)cc2c(c1O)C(=O)C[C@@H](c1ccc(O)cc1)O2", "Active"),
    ("COc1cc([C@@H]2CC(=O)c3c(cc(O)c(C/C=C(\\C)CCC=C(C)C)c3O)O2)cc(O)c1OC", "Active"),
    ("COc1cc([C@@H]2CC(=O)c3c(cc4c(c3O)C=CC(C)(CCC=C(C)C)O4)O2)ccc1O (stereo not given in full)", "Active"),
]

Would you kindly look at the next entry?
Query (compound): COc1cc([C@@H]2CC(=O)c3c(cc(O)c(C/C=C(\C)CCC=C(C)C)c3O)O2)cc(O)c1O ; field requested: inhibition
Active

Reference source for all entries: ChEMBL document CHEMBL4270486
